System: Escherichia coli
Test: Antimicrobial activity against Escherichia coli isolate 458 after 18 hrs
Assay type: functional, organism-based
The source made the active and inactive calls. The rule behind the calls is not given here.
Outcomes: active, inactive

compound=COC1=Cc2cn([C@@H](Cc3ccccc3)C(=O)O)c(=O)c3ccc(-c4ccccc4)c(c23)C1=O label=inactive
compound=O=C(O)CC(=O)OC[C@H]1O[C@@H](Oc2c(O)cc3c4c(ccc(-c5ccccc5)c24)C(=O)OC3)[C@H](O)[C@@H](O)[C@@H]1O label=active
compound=O=C1C(O)=Cc2cn([C@H](Cc3ccccc3)C(=O)O)c(=O)c3ccc(-c4ccccc4)c1c23 label=inactive
compound=COC1=Cc2cn([C@H](Cc3ccccc3)C(=O)O)c(=O)c3ccc(-c4ccccc4)c(c23)C1=O label=inactive
compound=C[C@@H]1[C@H](O)[C@@H](C)/C=C/C=C/C=C/C=C/C=C/C=C/C=C/[C@H](O[C@@H]2O[C@H](C)[C@@H](O)[C@H](N)[C@@H]2O)C[C@@H]2O[C@](O)(C[C@@H](O)C[C@@H](O)[C@H](O)CC[C@@H](O)C[C@@H](O)CC(=O)O[C@H]1C)C[C@H](O)[C@H]2C(=O)O label=active
compound=CSCC[C@@H](C(=O)O)n1cc2c3c(c(-c4ccccc4)ccc3c1=O)C(=O)C(O)=C2 label=inactive
compound=O=C1C(O)=Cc2c3n(c(=O)c4ccc(-c5ccccc5)c1c24)[C@H](C(=O)O)CS3 label=inactive
compound="O=C1OC(C(=O)O)c2cc(O)c(O)c3c(-c4ccccc4)ccc1c23 (stereo not given)" label=active
compound=COc1cc2c3c(ccc(-c4ccccc4)c3c1O[C@@H]1O[C@H](COC(=O)CC(=O)O)[C@@H](O)[C@H](O)[C@H]1O)C(=O)OC2 label=active
compound=O=C1OCc2cc(O)c(O)c3c(-c4ccccc4)ccc1c23 label=active
compound=CC(C)C[C@@H](C(=O)O)n1cc2c3c(c(-c4ccccc4)ccc3c1=O)C(=O)C(O)=C2 label=inactive
compound="O=C1OC(C(=O)O)c2cc(O)c(O[C@@H]3O[C@H](CO)[C@@H](O)[C@H](O)[C@H]3O)c3c(-c4ccccc4)ccc1c23 (stereo not given in full)" label=active
compound=CC(C)C[C@H](C(=O)O)n1cc2c3c(c(-c4ccccc4)ccc3c1=O)C(=O)C(O)=C2 label=inactive
compound=O=C(O)c1cn(C2CC2)c2cc(N3CCNCC3)c(F)cc2c1=O label=active
compound=O=C1C(O)=Cc2cn([C@@H](Cc3ccccc3)C(=O)O)c(=O)c3ccc(-c4ccccc4)c1c23 label=inactive
compound=COC1=Cc2cn([C@H](CC(C)C)C(=O)O)c(=O)c3ccc(-c4ccccc4)c(c23)C1=O label=inactive
compound=COC1=Cc2cn([C@@H](Cc3ccc(O)cc3)C(=O)O)c(=O)c3ccc(-c4ccccc4)c(c23)C1=O label=inactive
compound=O=C1C(O)=Cc2cn(CCO)c(=O)c3ccc(-c4ccccc4)c1c23 label=inactive
compound=COC1=Cc2cn([C@@H](Cc3c[nH]c4ccccc34)C(=O)O)c(=O)c3ccc(-c4ccccc4)c(c23)C1=O label=inactive
compound=O=C1C(O)=Cc2cn(CCCC[C@@H](C(=O)O)n3cc4c5c(c(-c6ccccc6)ccc5c3=O)C(=O)C(O)=C4)c(=O)c3ccc(-c4ccccc4)c1c23 label=inactive
